# systemName: 5-HT1A receptor (Rattus norvegicus, UniProt P19327)
# Sequence (P19327 1-422): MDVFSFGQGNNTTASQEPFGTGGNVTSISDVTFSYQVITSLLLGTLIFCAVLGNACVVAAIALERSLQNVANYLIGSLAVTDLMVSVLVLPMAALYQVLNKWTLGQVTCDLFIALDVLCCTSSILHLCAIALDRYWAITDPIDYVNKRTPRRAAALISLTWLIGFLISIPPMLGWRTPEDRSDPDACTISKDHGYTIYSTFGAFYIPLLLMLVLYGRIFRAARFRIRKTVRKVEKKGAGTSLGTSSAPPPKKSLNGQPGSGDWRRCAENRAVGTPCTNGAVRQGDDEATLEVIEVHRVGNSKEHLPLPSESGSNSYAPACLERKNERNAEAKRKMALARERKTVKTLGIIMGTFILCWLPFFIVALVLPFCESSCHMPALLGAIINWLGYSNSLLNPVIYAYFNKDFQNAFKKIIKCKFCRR
quantityMeasured: IC50 (nM)

Recorded result, COc1ccccc1N1CCN(C2CC=C(c3ncc(C)cc3C)CC2)CC1 (stereo not drawn) , IC50: 1.84

A = COc1ccccc1N1CCN([C@H]2CC[C@H](c3ncc(C)cc3C)CC2)CC1
B = COc1ccccc1N1CCN([C@H]2CC[C@H](c3ccccc3)CC2)CC1 [Example 1 (trans)]
Task item: Between the entries labeled A and B , whose measured IC50 is lower? The response must carry the label of the picked entry.
Reply: B
